Exercise: state measured viability at 10 µM for each of the compounds provided.
assay.name: Cell viability (WST-1), HEK293
Assay type: cell-based
measurement.context: human, HEK293 cells, mean ± SEM, n = 3
Param answer (str): number followed by unit.

[
  {
    "compound": "Fc1ccc(CNC(=S)Nc2ccc3ncnc(Nc4cccc(Cl)c4)c3c2)cc1 [Compound 5]",
    "viability at 10 µM": "67%"
  }
]

Please state, for each entry, its recorded viability at 10 µM.
1. O=C(NC(=O)c1ccccc1)Nc1ccc2ncnc(Nc3cccc(Cl)c3)c2c1 [Compound 15]
2. C#Cc1cccc(Nc2ncnc3ccc(NC(=O)NCc4cccc(Cl)c4)cc23)c1 [Compound 14]
3. O=C(NCc1cccc(Cl)c1)Nc1ccc2ncnc(Nc3cccc(Cl)c3)c2c1 [Compound 12]
4. COc1cccc(CNC(=S)Nc2ccc3ncnc(Nc4cccc(Cl)c4)c3c2)c1 [Compound 8]
5. S=C(NCc1ccco1)Nc1ccc2ncnc(Nc3cccc(Cl)c3)c2c1 [Compound 10]

[A]
114%
110%
114%
100%
71.7%

----------
System: IL-6 production
assay.name: IL-6 production in LPS-activated dTHP-1 cells (ELISA)
Assay type: cell-based, human
measurement.context: Homo sapiens; 15 μM; LPS 100 ng/mL for 24 h; dTHP-1 cells; read-out: IL-6 Production Inh % (15 μM)
endpoint: inhibition at 15 µM (%)
Numbers only, in %.

Consider the following illustrative entries.
[
  {
    "molecule": "Fc1ccc(CNC(=S)Nc2ccc3ncnc(Nc4cccc(Cl)c4)c3c2)c(F)c1 [Compound 6]",
    "inhibition at 15 µM / %": 98.2
  },
  {
    "molecule": "COc1ccc(CNC(=S)Nc2ccc3ncnc(Nc4cccc(Cl)c4)c3c2)c(OC)c1 [Compound 7]",
    "inhibition at 15 µM / %": 84
  },
  {
    "molecule": "CC(C)(C)NC(=S)Nc1ccc2ncnc(Nc3cccc(Cl)c3)c2c1 [Compound 20]",
    "inhibition at 15 µM / %": 98.7
  }
]

Please state, for each entry, its recorded inhibition at 15 µM.
1. S=C(NCC1CC1)Nc1ccc2ncnc(Nc3cccc(Cl)c3)c2c1 [Compound 18]
2. S=C(Nc1ccc2ncnc(Nc3cccc(Cl)c3)c2c1)NC1CC1 [Compound 17]
3. COc1ccc(CNC(=S)Nc2ccc3ncnc(Nc4cccc(Cl)c4)c3c2)cc1 [Compound 2]
4. S=C(Nc1ccc2ncnc(Nc3cccc(Cl)c3)c2c1)NC1CCCC1 [Compound 19]

[A]
1: 89.4; 2: 95.8; 3: 87.5; 4: 98.3

----------
Test system: TNFα production
assay.name: TNFα production in LPS-activated dTHP-1 cells (ELISA)
Type: cell-based
measurement.context: Homo sapiens; 7.5 μM; LPS 100 ng/mL for 24 h; dTHP-1 cells; read-out: TNFα Production Inh % (7.5 μM)
Exercise: state measured inhibition at 7.5 µM for each of the compounds provided.
Param answer (str): number followed by unit.

Consider the following illustrative entries.
[
  {
    "entry.smiles": "Fc1ccc(CNC(=S)Nc2ccc3ncnc(Nc4cccc(Cl)c4)c3c2)c(F)c1",
    "inhibition at 7.5 µM": "61.1%"
  },
  {
    "entry.smiles": "S=C(Nc1ccc2ncnc(Nc3cccc(Cl)c3)c2c1)NC1CC1",
    "inhibition at 7.5 µM": "19%"
  },
  {
    "entry.smiles": "CC(C)(C)NC(=S)Nc1ccc2ncnc(Nc3cccc(Cl)c3)c2c1",
    "inhibition at 7.5 µM": "57.4%"
  },
  {
    "entry.smiles": "COc1ccc(CNC(=S)Nc2ccc3ncnc(Nc4cccc(Cl)c4)c3c2)cc1",
    "inhibition at 7.5 µM": "32.5%"
  },
  {
    "entry.smiles": "S=C(NCC1CC1)Nc1ccc2ncnc(Nc3cccc(Cl)c3)c2c1",
    "inhibition at 7.5 µM": "31%"
  },
  {
    "entry.smiles": "S=C(Nc1ccc2ncnc(Nc3cccc(Cl)c3)c2c1)NC1CCCC1",
    "inhibition at 7.5 µM": "82.5%"
  }
]

Okay, next one:
[Q] Notebook: pull reported inhibition at 7.5 µM for TNFα production, entry COc1ccc(CNC(=S)Nc2ccc3ncnc(Nc4cccc(Cl)c4)c3c2)c(OC)c1
[A] 37%

----------
endpoint: melting point

[
  {
    "entry.smiles": "CC(C)(C)c1ccc(CNC(=S)Nc2ccc3ncnc(Nc4cccc(Cl)c4)c3c2)cc1",
    "melting point": "203 to 205 °C"
  }
]

Please state, for each entry, its recorded melting point.
1. S=C(NCc1ccc(Cl)cc1)Nc1ccc2ncnc(Nc3cccc(Cl)c3)c2c1
2. S=C(Nc1ccc2ncnc(Nc3cccc(Cl)c3)c2c1)NC1CC1
3. O=C(NCc1cccc(F)c1)Nc1ccc2ncnc(Nc3cccc(Cl)c3)c2c1
4. COc1ccc(CNC(=S)Nc2ccc3ncnc(Nc4cccc(Cl)c4)c3c2)cc1
5. FC(F)(F)c1ccc(CNC(=S)Nc2ccc3ncnc(Nc4cccc(Cl)c4)c3c2)cc1
6. O=C(NCc1cccc(Cl)c1)Nc1ccc2ncnc(Nc3cccc(Cl)c3)c2c1
7. S=C(NCc1cccnc1)Nc1ccc2ncnc(Nc3cccc(Cl)c3)c2c1
8. Fc1ccc(CNC(=S)Nc2ccc3ncnc(Nc4cccc(Cl)c4)c3c2)cc1

[A]
1: 166 to 168 °C; 2: 219.1 to 220.2 °C; 3: 210.8 to 212 °C; 4: 165 to 167 °C; 5: 165 to 167 °C; 6: 225.5 to 227 °C; 7: 205.6 to 207.9 °C; 8: 164 to 166 °C

Please state, for each entry, its recorded melting point.
1. S=C(NCC1CC1)Nc1ccc2ncnc(Nc3cccc(Cl)c3)c2c1
2. S=C(NCc1ccco1)Nc1ccc2ncnc(Nc3cccc(Cl)c3)c2c1

[A]
1: 226.3 to 228 °C; 2: 195.6 to 198.2 °C

----------
assay.name: Cell viability (WST-1), A549
Assay type: cell-based
measurement.context: human, A549 cells, mean ± SEM, n = 3
endpoint: viability at 10 µM (%)
Give bare numbers, in %.

[
  {
    "compound": "O=C(NC(=S)Nc1ccc2ncnc(Nc3cccc(Cl)c3)c2c1)c1ccccc1 [Compound 16]",
    "endpoint": "viability at 10 µM",
    "number": 102
  },
  {
    "compound": "COc1ccc(CNC(=S)Nc2ccc3ncnc(Nc4cccc(Cl)c4)c3c2)cc1 [Compound 2]",
    "endpoint": "viability at 10 µM",
    "number": 95.4
  }
]

Okay, next one:
[Q] Return reported viability at 10 µM; argument: S=C(NCc1cccnc1)Nc1ccc2ncnc(Nc3cccc(Cl)c3)c2c1 [Compound 11]
[A] 98.9

----------
assay.name: Cell viability (WST-1), HEK293
Type: cell-based
measurement.context: human, HEK293 cells, mean ± SEM, n = 3
Exercise: state measured viability at 10 µM for each of the compounds provided.
One number for each entry, in %.

Please state, for each entry, its recorded viability at 10 µM.
1. O=C(NC(=S)Nc1ccc2ncnc(Nc3cccc(Cl)c3)c2c1)c1ccccc1 [Compound 16]
2. S=C(NCc1cccs1)Nc1ccc2ncnc(Nc3cccc(Cl)c3)c2c1 [Compound 9]
3. Fc1ccc(CNC(=S)Nc2ccc3ncnc(Nc4cccc(Cl)c4)c3c2)c(F)c1 [Compound 6]
4. S=C(NCc1ccc(Cl)cc1)Nc1ccc2ncnc(Nc3cccc(Cl)c3)c2c1 [Compound 4]

[A]
[102, 13.9, 85.5, 95.9]

Please state, for each entry, its recorded viability at 10 µM.
1. CC(C)(C)NC(=S)Nc1ccc2ncnc(Nc3cccc(Cl)c3)c2c1 [Compound 20]
2. S=C(Nc1ccc2ncnc(Nc3cccc(Cl)c3)c2c1)NC1CCCC1 [Compound 19]

[A]
1. 99.7
2. 118
